Where do these numbers come from? They come from patent US20160280766A1.

- Experimental system: T1, FcγRIIIA having a Val residue at polymorphic site 158 (human, UniProt P08637 17-208)
- T1 construct: also called FcγRIIIA-158V; CD16a; not shown: His-tag fused to the C-terminus
- T1 sequence (P08637 17-208 F176V): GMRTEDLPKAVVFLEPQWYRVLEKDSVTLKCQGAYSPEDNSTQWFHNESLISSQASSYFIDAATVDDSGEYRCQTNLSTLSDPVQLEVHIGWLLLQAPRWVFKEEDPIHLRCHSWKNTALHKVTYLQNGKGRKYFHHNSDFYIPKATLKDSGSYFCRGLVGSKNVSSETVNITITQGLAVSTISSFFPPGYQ
- Experiment description: SPR, Fc captured on Protein A, receptor injected; 1:1 Langmuir kinetic fit
Reported Kd values for the following binders.
Number in nM, nothing else.

Binder	Kd (nM)
Fc-226^hg/290^hg/E333A/K334A (other, N-linked glycans at Asn297 and at engineered Asn226 and Asn290 (IgG1 heavy chain positions)) EPKSCDKTHTNSTCPAPELLGGPSVFLFPPKPKDTLMISRTPEVTCVVVDVSHEDPEVKFNWYVDGVEVHNAKTNSTEEQYNSTYRVVSVLTVLHQDWLNGKEYKCKVSNKALPAPIAATISKAKGQPREPQVYTLPPSREEMTKNQVSLTCLVKGFYPSDIAVEWESNGQPENNYKTTPPVLDSDGSFFLYSKLTVDKSRWQQGNVFSCSVMHEALHNHYTQKSLSLSPGK	57

Form: binder = IgG1 Fc variant Fc-226^hg/290^hg/S298A (other, N-linked glycans at Asn297 and at engineered Asn226 and Asn290 (IgG1 heavy chain positions)) EPKSCDKTHTNSTCPAPELLGGPSVFLFPPKPKDTLMISRTPEVTCVVVDVSHEDPEVKFNWYVDGVEVHNAKTNSTEEQYNATYRVVSVLTVLHQDWLNGKEYKCKVSNKALPAPIEKTISKAKGQPREPQVYTLPPSREEMTKNQVSLTCLVKGFYPSDIAVEWESNGQPENNYKTTPPVLDSDGSFFLYSKLTVDKSRWQQGNVFSCSVMHEALHNHYTQKSLSLSPGK ; Kd = 20.2

Notebook: IgG1 Fc variant Fc-226^hg/290^hg/S298A/E333A/K334A (other, N-linked glycans at Asn297 and at engineered Asn226 and Asn290 (IgG1 heavy chain positions)) EPKSCDKTHTNSTCPAPELLGGPSVFLFPPKPKDTLMISRTPEVTCVVVDVSHEDPEVKFNWYVDGVEVHNAKTNSTEEQYNATYRVVSVLTVLHQDWLNGKEYKCKVSNKALPAPIAATISKAKGQPREPQVYTLPPSREEMTKNQVSLTCLVKGFYPSDIAVEWESNGQPENNYKTTPPVLDSDGSFFLYSKLTVDKSRWQQGNVFSCSVMHEALHNHYTQKSLSLSPGK , Kd read as 15.5
